- assayedTarget: T1, hIL2-DM-his (human, UniProt P60568 21-153)
- T1 construct: expressed in ExpiCHO-S cells, nickel-column purified; also called hIL-2 mutein containing two point mutations K64G and N90R (with a his-tag); not shown: his-tag
- T1 sequence (P60568 21-153 K84G/N110R): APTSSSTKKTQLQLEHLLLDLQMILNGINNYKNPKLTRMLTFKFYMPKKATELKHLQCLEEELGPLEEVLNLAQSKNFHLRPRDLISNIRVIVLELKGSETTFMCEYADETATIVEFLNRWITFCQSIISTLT
- methodSummary: BLI ForteBio, Ab on Protein A sensor
readoutName: kon
Don't forget the unit after the value.

Would you kindly share the measured kon for K3G8 (antibody, V domains shown) VH: QVQLVQSGAEVKKPGATVKISCKVSGDTITAYYMHWVRQAPGQGLEWIGRIDPEDDSTKYAENFKGRVTITADTSTDTAYMELSSLRSEDTAVYYCTTITFLYSRELRWFAYWGQGTLVTVSS VL: DIVLTQSPATLSLSPGERATLSCQASQYIGNYLSWYQQKPGQAPRLLIYQATSLASGIPARFSGSRSGTDFTLTISSLEPEDFAVYYCLQHYSTPYTFGQGTKLEIK ? 297000 M⁻¹ s⁻¹
